System: HCV genotype 1b I389luc-ubi-neo/NS3-3'/5.1 replicon in Huh5.2 cells
Test details: microbe, parasite or virus in culture
Type: cell-based, Hepatitis C Virus
Protocol conditions: Hepatitis C virus, Huh-5-2, 72 h
Parameter measured: pEC50
Reminder that pEC50 is minus the log10 of a molar concentration.

Asked: Fill in: pEC50 of CC(=O)CC[C@H]1C(=O)N[C@@H](C(C)C)C(=O)N[C@@H](Cc2cccc(O)c2)C(=O)N2CCCC(N2)C(=O)O[C@H](/C(C)=C/C=C/C(=O)N(C)C2CCCCC2)C/C=C/C=C/[C@H](O)[C@H](C)[C@H]1O (some centres unmarked) [compound 45] is ___
Given back: 6.83

Asked: Fill in: pEC50 of CC(=O)CC[C@H]1C(=O)N[C@@H](C(C)C)C(=O)N[C@@H](Cc2cccc(O)c2)C(=O)N2CCCC(N2)C(=O)O[C@H](/C(C)=C/C=C/C(=O)NC2CCCCC2)C/C=C/C=C/[C@H](O)[C@H](C)[C@H]1O (some centres unmarked) [compound 51] is ___
Given back: 6.47

* * *

Exercise: state measured Selectivity index (CC50/EC50) for each of the compounds provided.
Test system: HCV genotype 1b I389luc-ubi-neo/NS3-3'/5.1 replicon in Huh5.2 cells
Test details: microbe, parasite or virus in culture
Format: cell-based, Hepatitis C Virus

Asked: Fill in: Selectivity index (CC50/EC50) of CNC(=O)/C=C/C=C(\C)[C@@H]1C/C=C/C=C/[C@H](O)[C@H](C)[C@@H](O)[C@@H](CCC(C)=O)C(=O)N[C@@H](C(C)C)C(=O)N[C@@H](Cc2cccc(O)c2)C(=O)N2CCCC(N2)C(=O)O1 (stereo partly drawn) [compound 19] is ___
Given back: >80

Asked: Fill in: Selectivity index (CC50/EC50) of CC(=O)CC[C@H]1C(=O)N[C@@H](C(C)C)C(=O)N[C@@H](Cc2cccc(O)c2)C(=O)N2CCCC(N2)C(=O)O[C@H](/C(C)=C/C=C/C(=O)NC(C)C)C/C=C/C=C/[C@H](O)[C@H](C)[C@H]1O (stereo partly drawn) [compound 16] is ___
Given back: >179

Asked: Fill in: Selectivity index (CC50/EC50) of CC(=O)CC[C@H]1C(=O)N[C@@H](C(C)C)C(=O)N[C@@H](Cc2cccc(O)c2)C(=O)N2CCCC(N2)C(=O)O[C@H](/C(C)=C/C=C/C(=O)N(C)C)C/C=C/C=C/[C@H](O)[C@H](C)[C@H]1O (stereo partly drawn) [compound 22] is ___
Given back: >287
